// provenance: PubChem BioAssay (NCI)

Hi there, I'd appreciate the recorded TGI for every entry that follows.
- System: SK-OV-3 ovarian
- Run description: NCI tumour cell line growth inhibition, 48 h

In the examples that follow, each entry is paired with its recorded TGI.
Requested field: TGI. Item: `CC1(C)N=C(N)N=C(N)N1c1ccc(OCC(=O)N2CCOCC2)c(Cl)c1`
> 100 µM

Can you look up the measured TGI of `c1cc2cc(c1)CN1CCNCCN(CCNCC1)Cc1cccc(c1)CN1CCNCCN(CCNCC1)C2` for me?
> 100 µM

Then there is this compound:
Item under review: `O=C(Nc1ccc([N+](=O)[O-])cc1C(=O)O)c1ccc([N+](=O)[O-])cc1` . Reported TGI?
> 100 µM
